Data origin, for the record: the supplement of paper PMC3334620

Target: Upc2 (UniProt Q12151)
Sequence: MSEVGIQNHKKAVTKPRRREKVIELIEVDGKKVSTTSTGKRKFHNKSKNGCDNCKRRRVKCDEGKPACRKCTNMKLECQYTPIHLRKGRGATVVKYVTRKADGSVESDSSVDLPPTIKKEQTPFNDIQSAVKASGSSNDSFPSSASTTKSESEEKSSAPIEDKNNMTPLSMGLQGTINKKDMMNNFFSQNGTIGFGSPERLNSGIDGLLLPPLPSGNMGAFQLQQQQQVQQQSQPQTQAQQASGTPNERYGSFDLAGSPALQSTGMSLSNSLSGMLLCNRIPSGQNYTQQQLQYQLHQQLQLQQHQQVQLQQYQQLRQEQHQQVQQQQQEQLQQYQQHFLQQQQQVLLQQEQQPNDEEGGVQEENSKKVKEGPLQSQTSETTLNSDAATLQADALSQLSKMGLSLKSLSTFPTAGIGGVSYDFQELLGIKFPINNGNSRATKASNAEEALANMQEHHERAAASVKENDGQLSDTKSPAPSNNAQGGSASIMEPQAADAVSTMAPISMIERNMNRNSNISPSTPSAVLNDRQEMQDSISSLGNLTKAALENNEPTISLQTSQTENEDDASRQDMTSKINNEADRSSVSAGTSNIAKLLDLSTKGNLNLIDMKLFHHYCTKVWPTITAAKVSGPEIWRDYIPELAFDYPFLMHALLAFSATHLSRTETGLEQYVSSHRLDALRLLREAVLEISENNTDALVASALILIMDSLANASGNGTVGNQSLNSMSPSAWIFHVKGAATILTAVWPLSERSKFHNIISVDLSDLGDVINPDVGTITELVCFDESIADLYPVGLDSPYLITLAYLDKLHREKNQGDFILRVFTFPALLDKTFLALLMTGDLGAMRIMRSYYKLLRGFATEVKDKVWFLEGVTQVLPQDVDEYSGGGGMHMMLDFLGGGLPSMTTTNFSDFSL
Assay: PBM E-score (8-mer binding enrichment) (E-score (-0.5 to 0.5)); higher = stronger / more preferred TF binding
Conditions: protein concentration: 200 nM; construct: GST-full length
In all, about 33,000 sequences were measured (“E-score (-0.5 to 0.5)”: median about -0.043, highest 2% from about 0.37 on). This excerpt belongs to a sample that is enriched for the highest values.
Classification by PBM E-score | ranges: b0 (below 0.05), b1 (0.05 to below 0.2), b2 (0.2 or more)

Example results:
>  <QUERY SEQUENCE>
GTGAACTA

>  <CLASS NAME>
b1

$$$$
>  <QUERY SEQUENCE>
CATTAAGC

>  <CLASS NAME>
b0

$$$$
>  <QUERY SEQUENCE>
ATGAACGG

>  <CLASS NAME>
b2

$$$$
>  <QUERY SEQUENCE>
AGACCCCA

>  <CLASS NAME>
b0

$$$$
>  <QUERY SEQUENCE>
GTGAACGA

>  <CLASS NAME>
b2

$$$$

Dear colleague, I would appreciate it if you could identify the bin for CTGAACGA and reply at your convenience.
b2

Dear colleague, I would appreciate it if you could identify the bin for ATGAACGC and reply at your convenience.
b1

Dear colleague, I would appreciate it if you could identify the bin for TCGGAAAA and reply at your convenience.
b2

Dear colleague, I would appreciate it if you could identify the bin for CCACAGCG and reply at your convenience.
b0

Dear colleague, I would appreciate it if you could identify the bin for CTGAACGC and reply at your convenience.
b1
